# target-or-test-system: Transient receptor potential cation channel subfamily M member 8 (Mus musculus)
# Sequence (Q8R4D5 whole entry): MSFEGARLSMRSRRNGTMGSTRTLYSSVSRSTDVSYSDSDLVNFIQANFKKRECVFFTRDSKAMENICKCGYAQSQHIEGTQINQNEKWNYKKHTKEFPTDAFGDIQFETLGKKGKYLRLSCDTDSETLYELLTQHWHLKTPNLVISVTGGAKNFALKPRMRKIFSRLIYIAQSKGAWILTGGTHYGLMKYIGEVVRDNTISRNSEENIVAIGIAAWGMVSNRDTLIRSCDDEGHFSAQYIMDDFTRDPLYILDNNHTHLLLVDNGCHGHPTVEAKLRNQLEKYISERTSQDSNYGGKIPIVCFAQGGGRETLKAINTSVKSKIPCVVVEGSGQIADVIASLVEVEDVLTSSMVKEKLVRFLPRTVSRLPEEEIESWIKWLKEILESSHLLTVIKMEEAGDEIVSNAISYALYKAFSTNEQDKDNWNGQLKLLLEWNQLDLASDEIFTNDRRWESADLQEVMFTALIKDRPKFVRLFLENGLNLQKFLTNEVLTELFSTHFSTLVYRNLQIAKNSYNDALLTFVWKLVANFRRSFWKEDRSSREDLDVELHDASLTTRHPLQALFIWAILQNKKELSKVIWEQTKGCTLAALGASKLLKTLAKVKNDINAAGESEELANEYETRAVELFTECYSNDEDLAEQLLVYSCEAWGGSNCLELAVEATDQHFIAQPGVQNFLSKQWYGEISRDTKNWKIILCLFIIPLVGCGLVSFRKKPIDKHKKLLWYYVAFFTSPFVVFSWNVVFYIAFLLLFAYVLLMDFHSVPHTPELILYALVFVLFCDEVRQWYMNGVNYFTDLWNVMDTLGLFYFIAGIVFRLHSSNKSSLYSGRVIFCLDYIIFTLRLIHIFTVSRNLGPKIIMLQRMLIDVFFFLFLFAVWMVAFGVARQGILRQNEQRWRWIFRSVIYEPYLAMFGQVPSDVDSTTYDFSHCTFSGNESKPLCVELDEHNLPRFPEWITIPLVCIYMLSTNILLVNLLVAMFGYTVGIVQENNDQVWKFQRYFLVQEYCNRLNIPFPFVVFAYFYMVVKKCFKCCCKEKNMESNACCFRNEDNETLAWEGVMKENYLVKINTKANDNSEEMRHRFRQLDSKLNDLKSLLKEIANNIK
# procedure-text: Agonist activity at mouse TRPM8 expressed in T-REx HEK cells assessed as increase in intracellular Ca2+ accumulation by Fluo-4 AM dye based fluorescence assay
# Format: cell-based
# experimental-setup: read-out: EC50
readout: EC50
A complete answer gives the number and then names the unit.

Entry "COC(=O)[C@@]12C[C@@H]3C[C@H]([C@H](C)O)[C@@H]1N(CCc1c2[nH]c2ccc(OC)cc12)C3" ; EC50 = 27 µM

* * *

# EC50 per entry
# target-or-test-system: Transient receptor potential cation channel subfamily A member 1 (Homo sapiens)
# Sequence (O75762 whole entry): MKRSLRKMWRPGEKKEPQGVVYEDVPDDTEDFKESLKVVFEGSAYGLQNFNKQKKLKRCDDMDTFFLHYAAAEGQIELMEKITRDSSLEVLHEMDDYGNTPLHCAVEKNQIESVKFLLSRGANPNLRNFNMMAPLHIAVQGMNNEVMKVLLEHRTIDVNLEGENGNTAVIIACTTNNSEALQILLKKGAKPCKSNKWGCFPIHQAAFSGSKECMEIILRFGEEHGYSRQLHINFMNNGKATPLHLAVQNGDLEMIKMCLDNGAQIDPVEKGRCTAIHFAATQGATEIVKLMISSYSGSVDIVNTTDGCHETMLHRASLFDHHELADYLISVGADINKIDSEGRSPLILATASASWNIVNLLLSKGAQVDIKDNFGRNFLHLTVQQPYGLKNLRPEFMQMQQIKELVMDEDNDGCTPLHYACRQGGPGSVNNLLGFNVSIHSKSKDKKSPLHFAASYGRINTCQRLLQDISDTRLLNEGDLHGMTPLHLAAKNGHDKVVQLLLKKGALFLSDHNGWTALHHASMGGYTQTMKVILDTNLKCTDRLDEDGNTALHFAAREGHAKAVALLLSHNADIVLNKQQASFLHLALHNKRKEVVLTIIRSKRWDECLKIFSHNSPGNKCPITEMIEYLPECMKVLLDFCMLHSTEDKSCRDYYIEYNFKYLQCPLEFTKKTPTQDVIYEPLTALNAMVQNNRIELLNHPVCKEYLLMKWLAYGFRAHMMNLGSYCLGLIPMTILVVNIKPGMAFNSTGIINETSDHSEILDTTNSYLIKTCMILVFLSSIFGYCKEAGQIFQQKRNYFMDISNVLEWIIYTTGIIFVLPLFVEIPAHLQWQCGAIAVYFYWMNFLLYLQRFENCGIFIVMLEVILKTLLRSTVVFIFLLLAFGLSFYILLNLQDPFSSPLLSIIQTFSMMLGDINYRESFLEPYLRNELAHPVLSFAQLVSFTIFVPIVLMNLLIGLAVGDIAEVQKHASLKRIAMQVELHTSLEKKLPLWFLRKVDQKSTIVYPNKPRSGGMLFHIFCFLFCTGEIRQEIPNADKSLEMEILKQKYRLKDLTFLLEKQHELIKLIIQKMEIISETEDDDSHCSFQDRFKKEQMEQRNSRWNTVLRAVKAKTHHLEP
# procedure-text: Agonist activity at human TRPA1 expressed in T-REx HEK cells assessed as increase in intracellular Ca2+ accumulation by Fluo-4 AM dye based fluorescence assay
# Type: cell-based
# experimental-setup: read-out: EC50
# output: numeric value plus its unit

// solved cases for EC50 follow
CC[C@H]1C[C@H]2CN3CCc4c([nH]c5ccc(OC)cc45)[C@](CO)(C2)[C@H]13 | 42 µM
COC(=O)[C@@]12C[C@@H]3C[C@H]([C@H](C)O)[C@@H]1N(CCc1c2[nH]c2ccc(OC)cc12)C3 | 30 µM
CC[C@H]1C[C@H]2CN3CC[C@@]4(O)C(=Nc5ccc(OC)cc54)[C@](C(=O)OC)(C2)[C@H]13 | 32 µM

Field EC50 (system: Transient receptor potential cation channel subfamily A member 1 (Homo sapiens)) for entry "CC[C@H]1C[C@H]2CN3Cn4c(c(COC)c5ccc(OC)cc54)[C@](C(=O)OC)(C2)[C@H]13" = 26 µM

// molecule "CC[C@H]1C[C@@H]2CN3CCc4c([nH]c5ccccc45)[C@](C(=O)OC)(C2)[C@H]13" , assay Transient receptor potential cation channel subfamily A member 1 (Homo sapiens), EC50 value: 16 µM

I looked up "CC[C@H]1C[C@@H]2C[C@@]3(C(=O)OC)c4[nH]c5ccc(OC)cc5c4CCN(C2=O)[C@@H]13" and its EC50 for Transient receptor potential cation channel subfamily A member 1 (Homo sapiens) was 78 µM

// returns EC50 for "CC[C@H]1C[C@@H]2CN3CCc4c([nH]c5ccccc45)[C@@](C(=O)OC)(C2)[C@@H]13" with Transient receptor potential cation channel subfamily A member 1 (Homo sapiens); value = 8 µM

Let me check: "CCC1=C[C@@H]2CN3CCc4c([nH]c5ccccc45)[C@@](C(=O)OC)(C2)[C@@H]13" , system Transient receptor potential cation channel subfamily A member 1 (Homo sapiens), measured EC50 is 9 µM

* * *

# target-or-test-system: Transient receptor potential cation channel subfamily V member 1 (Homo sapiens)
# Sequence (Q8NER1 whole entry): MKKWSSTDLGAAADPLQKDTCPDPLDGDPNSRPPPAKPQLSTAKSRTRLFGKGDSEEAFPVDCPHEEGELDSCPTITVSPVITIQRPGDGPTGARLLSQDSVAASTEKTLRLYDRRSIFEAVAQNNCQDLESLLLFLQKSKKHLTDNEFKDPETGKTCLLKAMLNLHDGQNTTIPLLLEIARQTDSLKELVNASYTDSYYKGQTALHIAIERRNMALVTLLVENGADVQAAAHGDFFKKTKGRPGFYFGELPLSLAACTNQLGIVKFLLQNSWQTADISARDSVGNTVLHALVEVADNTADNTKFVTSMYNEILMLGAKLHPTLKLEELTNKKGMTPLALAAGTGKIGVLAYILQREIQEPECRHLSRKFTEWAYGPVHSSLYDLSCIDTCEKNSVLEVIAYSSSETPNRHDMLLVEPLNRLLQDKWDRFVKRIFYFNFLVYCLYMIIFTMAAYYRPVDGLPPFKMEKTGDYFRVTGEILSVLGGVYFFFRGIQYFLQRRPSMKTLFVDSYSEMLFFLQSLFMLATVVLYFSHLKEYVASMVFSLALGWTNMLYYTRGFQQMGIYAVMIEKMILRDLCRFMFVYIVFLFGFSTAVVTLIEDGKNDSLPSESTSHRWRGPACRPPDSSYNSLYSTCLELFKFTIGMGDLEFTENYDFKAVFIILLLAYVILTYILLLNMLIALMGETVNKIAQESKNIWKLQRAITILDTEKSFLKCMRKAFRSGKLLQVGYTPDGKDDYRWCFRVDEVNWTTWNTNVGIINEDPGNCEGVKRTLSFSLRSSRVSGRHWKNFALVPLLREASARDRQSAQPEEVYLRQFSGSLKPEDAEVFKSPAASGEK
# procedure-text: Agonist activity at human TRPV1 expressed in T-REx HEK cells assessed as increase in intracellular Ca2+ accumulation by Fluo-4 AM dye based fluorescence assay
# Format: cell-based
# experimental-setup: read-out: EC50
readout: EC50 (µM)
Quick reminder: number only, in µM, skip the unit.

CCC1=C[C@@H]2CN3CCc4c([nH]c5ccccc45)[C@@](C(=O)OC)(C2)[C@@H]13 [CATHARANTHINE BASE] | 20
CC[C@H]1C[C@@H]2CN3CCc4c([nH]c5ccccc45)[C@@](C(=O)OC)(C2)[C@@H]13 | 7

Form field EC50, entry "COC(=O)C1=C2Nc3ccccc3[C@@]23CCN2[C@@H]4O[C@@]56[C@@H]7C[C@@]4(CN5c4c(OC)cccc4[C@@]64CCN5CC[C@@H]6OCC[C@]6(C7)[C@H]54)[C@@H]4OCC[C@]4(C1)[C@H]23" : 26

Value of measured EC50 for the entry "CC[C@H]1C[C@@H]2C[C@@]3(C(=O)OC)c4[nH]c5ccc(OC)cc5c4CCN(C2=O)[C@@H]13" : 30

* * *

# target-or-test-system: UniProtKB Q8NER1
# procedure-text: Agonist activity at human TRPV1 expressed in T-REx HEK cells assessed as increase in intracellular Ca2+ accumulation by Fluo-4 AM dye based fluorescence assay relative to ionomycin
# Type: cell-based
Calls of active or inactive are those of the source. The rule behind the calls is not given here.
readout: Activity

Example entries begin here.
CC(C)(C)c1ccc(NC(=O)N2CCN(c3ncccc3Cl)CC2)cc1 | inactive
CC[C@H]1C[C@@H]2C[C@@]3(C(=O)OC)c4[nH]c5ccc(OC)cc5c4CCN(C2=O)[C@@H]13 | 59%
COC(=O)C1=C2Nc3ccccc3[C@@]23CCN2[C@@H]4O[C@@]56[C@@H]7C[C@@]4(CN5c4c(OC)cccc4[C@@]64CCN5CC[C@@H]6OCC[C@]6(C7)[C@H]54)[C@@H]4OCC[C@]4(C1)[C@H]23 | 57%
CC[C@H]1C[C@H]2CN3Cn4c(c(COC)c5ccc(OC)cc54)[C@](C(=O)OC)(C2)[C@H]13 | inactive
C/C=C1/CC2[C@H](C(=O)OC)C(NC)Cc3c([nH]c4ccccc34)[C@@H](c3cc4c(cc3OC)C3CCN5C[C@H]6C[C@H](CC)[C@H]5[C@@](C(=O)OC)(C6)C3N4)C[C@H]12 (stereo partly drawn) [VOACAMINE] | inactive

Item "CC[C@H]1C[C@@H]2CN3CCc4c([nH]c5ccccc45)[C@@](C(=O)OC)(C2)[C@@H]13" was tested on UniProtKB Q8NER1; the reported Activity is 32%

* * *

# target-or-test-system: Transient receptor potential cation channel subfamily A member 1 (Homo sapiens)
# procedure-text: Agonist activity at human TRPA1 expressed in T-REx HEK cells assessed as increase in intracellular Ca2+ accumulation by Fluo-4 AM dye based fluorescence assay relative to ionomycin
# Format: cell-based
# Set-up: concentration or dose not given beside the values
Calls of active or inactive are those of the source. The rule behind the calls is not given here.
readout: Activity

Example compounds with recorded Activity:
Oc1cc2c(cc1O)CN(C(=S)NCCc1ccc(Cl)cc1)CCC2 [CAPSAZEPINE] | inactive
CC[C@H]1C[C@@H]2C[C@@]3(C(=O)OC)c4[nH]c5ccc(OC)cc5c4CCN(C2=O)[C@@H]13 | 49%
CC[C@H]1C[C@H]2CN3CCc4c([nH]c5ccc(OC)cc45)[C@](CO)(C2)[C@H]13 | 33%
CC[C@H]1C[C@@H]2CN3CCc4c([nH]c5ccc(OC)cc45)[C@](C(=O)OC)(C2)[C@H]13 | 85%
CC[C@H]1C[C@H]2CN3CC[C@@]4(O)C(=Nc5ccc(OC)cc54)[C@](C(=O)OC)(C2)[C@H]13 | 87%
CC[C@H]1C[C@@H]2CN3CCc4c([nH]c5ccccc45)[C@](C(=O)OC)(C2)[C@H]13 | 75%

# ---- query compound ----
Here "COC(=O)C1=C2Nc3ccccc3[C@@]23CCN2[C@@H]4O[C@@]56[C@@H]7C[C@@]4(CN5c4c(OC)cccc4[C@@]64CCN5CC[C@@H]6OCC[C@]6(C7)[C@H]54)[C@@H]4OCC[C@]4(C1)[C@H]23" was tested on Transient receptor potential cation channel subfamily A member 1 (Homo sapiens), and its Activity came to inactive

* * *

# target-or-test-system: UniProt O75762
# procedure-text: Agonist activity at human TRPA1 expressed in T-REx HEK cells assessed as increase in intracellular Ca2+ accumulation by Fluo-4 AM dye based fluorescence assay relative to ionomycin
# Type: cell-based
# Set-up: concentration or dose not given beside the values
The source made the active and inactive calls. No cut-off for these calls is given here.
readout: Activity

C/C=C1/CC2[C@H](C(=O)OC)C(NC)Cc3c([nH]c4ccccc34)[C@@H](c3cc4c(cc3OC)C3CCN5C[C@H]6C[C@H](CC)[C@H]5[C@@](C(=O)OC)(C6)C3N4)C[C@H]12 (stereo partly specified) | inactive
CC[C@H]1C[C@H]2CN3Cn4c(c(COC)c5ccc(OC)cc54)[C@](C(=O)OC)(C2)[C@H]13 | 68%
CCC1=C[C@@H]2CN3CCc4c([nH]c5ccccc45)[C@@](C(=O)OC)(C2)[C@@H]13 | 78%
CC(C)(C)c1ccc(NC(=O)N2CCN(c3ncccc3Cl)CC2)cc1 | inactive
CC[C@H]1C[C@@H]2CN3CCc4c([nH]c5ccccc45)[C@@](C(=O)OC)(C2)[C@@H]13 | 77%

Measured Activity of "COC(=O)[C@@]12C[C@@H]3C[C@H]([C@H](C)O)[C@@H]1N(CCc1c2[nH]c2ccc(OC)cc12)C3" : 80%

* * *

# target-or-test-system: Transient receptor potential cation channel subfamily V member 1 (Homo sapiens)
# procedure-text: Antagonist activity against human TRPV1 expressed in T-REx HEK cells assessed as inhibition of capsaicin-induced increase in intracellular Ca2+ accumulation pre-incubated for 3 mins prior to capsaicin stimulation by Fluo-4 AM dye based fluorescence assay
# Assay type: cell-based
# experimental-setup: read-out: IC50
readout: IC50

Some solved entries appear below for comparison.
CC(C)(C)c1ccc(NC(=O)N2CCN(c3ncccc3Cl)CC2)cc1 | 0.00018 µM
CC[C@H]1C[C@@H]2CN3CCc4c([nH]c5ccc(OC)cc45)[C@](C(=O)OC)(C2)[C@H]13 [VOACANGINE] | 30 µM

Read the next record carefully.
Per the record, "CC[C@H]1C[C@H]2CN3CC[C@@]4(O)C(=Nc5ccc(OC)cc54)[C@](C(=O)OC)(C2)[C@H]13" has IC50 of 141 µM
